- Assay Target: T1, human CACNG1 nanodisc (Homo sapiens, UniProt Q06432)
- T1 construct: made in house
- T1 sequence (Q06432 whole entry): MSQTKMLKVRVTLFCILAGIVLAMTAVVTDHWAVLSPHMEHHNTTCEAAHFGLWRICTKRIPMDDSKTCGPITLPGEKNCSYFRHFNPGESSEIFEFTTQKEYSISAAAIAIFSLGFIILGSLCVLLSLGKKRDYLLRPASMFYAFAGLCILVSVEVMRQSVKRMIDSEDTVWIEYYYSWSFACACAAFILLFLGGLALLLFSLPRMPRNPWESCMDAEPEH
- Protocol: Biacore binding kinetics of anti-CACNG1 monoclonal antibodies to human CACNG1 nanodisc, antigen capture format
- Measurement Setup: 25° C., 1:1 binding model
Reported ka values follow for various molecules
Reported Metric: ka (M⁻¹ s⁻¹)

Molecule: REGN10717: anti-hCACNG1 antibody, HCVR/LCVR SEQ ID NOs: 34/42, wildtype hIgG1 (antibody, V domains shown, hIgG1) VH: QVQLVESGGGVVQPGRSLRLSCAASGFTFSTYGMHWVRQAPGKGLEWVAVIWHDGSDKYYVDSVKGRFSIARDNSKNTLYLQMNSLRVEDTGIYYCARRGIRGTVFDHWGLGTLVTVSS VL: DIQMTQSPSTLSASVGDRVTLTCRASQSISNKLAWYQQKPGKAPNLLIYKASNLESGVPSRFSGSGSGTEFTLTISSLQPDDFATYYCQQYNSYSWTFGQGTKVEIK
Reported Metric: ka
Units Label: M⁻¹ s⁻¹
Recorded Value: 294000
--
Molecule: REGN9909: anti-hCACNG1 antibody, HCVR/LCVR SEQ ID NOs: 146/154 (antibody, V domains shown) VH: EVQLLESGGGLVQPGGSLRLSCAASGFTFNNYGMSWVRQGPGKGLEWVSSISGSGGTTFYADSVKGRFTISRDNSKNTLYLQMNSLRAEDTAVYYCGKGGYCSSSGCRHYGMDVWGQGTTVTVSS VL: QSVLTQPPSASGTPGQRVTISCSGSSSNIGNNYIYWYQRLPGTTPKLLIYRNNQRPSGVPDRFSGSKSGTSASLAISGLRSEDEADYYCAAWDDTLSGYVFGTGTKVTVL
Reported Metric: ka
Units Label: M⁻¹ s⁻¹
Recorded Value: 331000
